These entries and their values trace back to ChEMBL document CHEMBL3885881.

- Species: Rattus norvegicus
- ASSAY_COMMENT: DrugMatrix - Regimen: Daily Repeat
- Format: toxicity, organism-based, Sprague-Dawley
- Parameters: regimen Daily Repeat, gender Male, age 6-8 weeks
- ASSAY_SETUP: in vivo, iv, 0 mg/kg, 72 h, tissue Blood, dose level Control, time 3 day, vehicle 100 % SALINE
Starred links: 1 amine or outer side, 2 acyl side, 3 side chain; linkers in the order of their positions; H or OH if unused. Positions of bridges follow the written chain, without caps; N, C: chain ends. Non-standard residues stand in square brackets, D forms with d. Residues, ends and D or L forms follow the SMILES beside them. Chains are numbered I, II in the order given. Actinocin(9to1) = Cc1c2oc3c(C)ccc(C(=O)[*:1])c3nc-2c(C(=O)[*:2])c(N)c1=O; NMeV = CN[C@H](C(=O)O)C(C)C; Sar = CNCC(=O)O
Please go through the items and note down their ABSOLUTE SEGMENTED NEUTROPHIL.
Numbers only, in CELLS/uL.

Reference set (3 entries):
COc1cc2c3cc1Oc1cc(ccc1O)C[C@@H]1c4c(cc(OC)c(O)c4Oc4ccc(cc4)C[C@@H]3N(C)CC2)CC[N+]1(C)C.[Cl-]: 1170.83
CC[C@]1(O)C[C@H]2CN(CCc3c([nH]c4ccccc34)[C@@](C(=O)OC)(c3cc4c(cc3OC)N(C=O)[C@H]3[C@@](O)(C(=O)OC)[C@H](OC(C)=O)[C@]5(CC)C=CCN6CC[C@]43[C@@H]65)C2)C1: 661.17
Cc1ccc(N(CC2=NCCN2)c2cccc(O)c2)cc1: 1645.83

IN: Please give measured ABSOLUTE SEGMENTED NEUTROPHIL of the following entry: Cc1c2oc3c(C)ccc(C(=O)N[C@@H]4C(=O)N[C@H](C(C)C)C(=O)N5CCC[C@H]5C(=O)N(C)CC(=O)N(C)[C@@H](C(C)C)C(=O)O[C@@H]4C)c3nc-2c(C(=O)N[C@@H]2C(=O)N[C@H](C(C)C)C(=O)N3CCC[C@H]3C(=O)N(C)CC(=O)N(C)[C@@H](C(C)C)C(=O)O[C@@H]2C)c(N)c1=O [DACTINOMYCIN] (I: T[dV]P[Sar][NMeV] / II: T[dV]P[Sar][NMeV]; ester I:1-I:C, II:1-II:C; linker I:N-II:N via Actinocin(9to1))
OUT: 1282.67

====

Please go through the items and note down their SODIUM.
- Species: Rattus norvegicus
- ASSAY_COMMENT: DrugMatrix - Regimen: Daily Repeat
- Format: toxicity, organism-based, Sprague-Dawley
- Set-up: regimen Daily Repeat, gender Male, age 6-8 weeks
- ASSAY_SETUP: in vivo, po, 0 mg/kg, […], tissue Plasma, route oral GAVAGE, dose level Control, time 14 day, vehicle .5 % CMC
One number for each entry, in MEQ/L.

Reference set (3 entries):
ClC(Br)Br: 143.72
COc1ccc(C(=O)Nc2c(Cl)c[n+]([O-])cc2Cl)c2ccc(C(F)(F)F)nc12: 149.33
CCOP(=S)(OCC)Oc1nc(Cl)c(Cl)cc1Cl: 148.17

Next up:
IN: Please give measured SODIUM of the following entry: `ClC(Cl)Br`
OUT: 143.72

====

- Species on record: Rattus norvegicus
- ASSAY_COMMENT: DrugMatrix - Regimen: Daily Repeat
- Format: toxicity, organism-based, Sprague-Dawley
- Design: regimen Daily Repeat, gender Male, age 6-8 weeks
- ASSAY_SETUP: in vivo, iv, 0 mg/kg, 72 h, tissue Blood, dose level Control, time 3 day, vehicle 100 % SALINE
Starred links: 1 amine or outer side, 2 acyl side, 3 side chain; linkers in the order of their positions; H or OH if unused. Positions of bridges follow the written chain, without caps; N, C: chain ends. Non-standard residues stand in square brackets, D forms with d. Residues, ends and D or L forms follow the SMILES beside them. Chains are numbered I, II in the order given. Actinocin(9to1) = Cc1c2oc3c(C)ccc(C(=O)[*:1])c3nc-2c(C(=O)[*:2])c(N)c1=O; NMeV = CN[C@H](C(=O)O)C(C)C; Sar = CNCC(=O)O
Please go through the items and note down their ABSOLUTE LYMPHOCYTE.

Reference set (3 entries):
COc1cc2c3cc1Oc1cc(ccc1O)C[C@@H]1c4c(cc(OC)c(O)c4Oc4ccc(cc4)C[C@@H]3N(C)CC2)CC[N+]1(C)C.[Cl-]: 11636.83 CELLS/uL
Cc1c2oc3c(C)ccc(C(=O)N[C@@H]4C(=O)N[C@H](C(C)C)C(=O)N5CCC[C@H]5C(=O)N(C)CC(=O)N(C)[C@@H](C(C)C)C(=O)O[C@@H]4C)c3nc-2c(C(=O)N[C@@H]2C(=O)N[C@H](C(C)C)C(=O)N3CCC[C@H]3C(=O)N(C)CC(=O)N(C)[C@@H](C(C)C)C(=O)O[C@@H]2C)c(N)c1=O [DACTINOMYCIN] (I: T[dV]P[Sar][NMeV] / II: T[dV]P[Sar][NMeV]; ester I:1-I:C, II:1-II:C; linker I:N-II:N via Actinocin(9to1)): 12123.5 CELLS/uL
CC[C@]1(O)C[C@H]2CN(CCc3c([nH]c4ccccc34)[C@@](C(=O)OC)(c3cc4c(cc3OC)N(C=O)[C@H]3[C@@](O)(C(=O)OC)[C@H](OC(C)=O)[C@]5(CC)C=CCN6CC[C@]43[C@@H]65)C2)C1: 7637.67 CELLS/uL

Next up:
IN: Please give measured ABSOLUTE LYMPHOCYTE of the following entry: `Cc1ccc(N(CC2=NCCN2)c2cccc(O)c2)cc1`
OUT: 13731.5 CELLS/uL
